Tested on: IA-LM
PROTOCOL DETAILS: relative viability (nuclei count vs DMSO), 5 days (fraction); higher = more cells survive
EXPERIMENTAL CONTEXT: first compound 0.3162 µM
Each record is given T if its reported relative viability is strictly below 0.8. Records at or above 0.8 are given F.

COMPOUND	QUALITATIVE LABEL
CC(C)Oc1cc(Nc2nc(N[C@@H](C)c3ccc(F)cn3)ncc2Cl)n[nH]1 [AZ23] + O=C(CCCCCCC(=O)Nc1ccccc1)NO [Vorinostat] (partner 1 µM)	F

I'd appreciate it if you could check whether CC(C)Oc1cc(Nc2nc(N[C@@H](C)c3ccc(F)cn3)ncc2Cl)n[nH]1 [AZ23] + CC1(C)CCC(c2ccc(Cl)cc2)=C(CN2CCN(c3ccc(C(=O)NS(=O)(=O)c4ccc(N[C@H](CCN5CCOCC5)CSc5ccccc5)c(S(=O)(=O)C(F)(F)F)c4)cc3)CC2)C1 [Navitoclax] (partner 0.5 µM) has relative viability smaller than 0.8.
F

I'd appreciate it if you could check whether CC(C)Oc1cc(Nc2nc(N[C@@H](C)c3ccc(F)cn3)ncc2Cl)n[nH]1 [AZ23] + CS(=O)(=O)CCNCc1ccc(-c2ccc3ncnc(Nc4ccc(OCc5cccc(F)c5)c(Cl)c4)c3c2)o1 [Lapatinib] (partner 2 µM) has relative viability smaller than 0.8.
F

I'd appreciate it if you could check whether CC(C)Oc1cc(Nc2nc(N[C@@H](C)c3ccc(F)cn3)ncc2Cl)n[nH]1 [AZ23] + CC(C)C[C@H](NC(=O)[C@H](Cc1ccccc1)NC(=O)c1cnccn1)B(O)O [Bortezomib] (partner 0.002 µM) has relative viability smaller than 0.8.
T

###

Test system: NCI-H2087
PROTOCOL DETAILS: relative viability (nuclei count vs DMSO), 5 days (fraction); higher = more cells survive
EXPERIMENTAL CONTEXT: first compound 0.4 µM
OBSERVABLE: relative viability
Answer with a number only.

The following compounds have reported results that may help.
COMPOUND	NUMBER
Clc1ccc(Nc2nnc(Cc3ccncc3)c3ccccc23)cc1 [Vatalanib] + CC(=O)c1c(C)c2cnc(Nc3ccc(N4CCNCC4)cn3)nc2n(C2CCCC2)c1=O [Palbociclib] (partner 0.5 µM)	0.205
Clc1ccc(Nc2nnc(Cc3ccncc3)c3ccccc23)cc1 [Vatalanib] + Nc1nc2[nH]cc(CCc3ccc(C(=O)N[C@@H](CCC(=O)O)C(=O)O)cc3)c2c(=O)[nH]1 [Pemetrexed] (partner 0.2 µM)	0.685
C[C@@H]1CN(CC(=O)Nc2ccc3c(c2)Cc2cccc(-c4cc(=O)cc(N5CCOCC5)o4)c2S3)C[C@H](C)O1 + Nc1ncn([C@H]2C[C@H](O)[C@@H](CO)O2)c(=O)n1 [Decitabine] (partner 2 µM)	0.267
C[C@@H]1CN(CC(=O)Nc2ccc3c(c2)Cc2cccc(-c4cc(=O)cc(N5CCOCC5)o4)c2S3)C[C@H](C)O1 + CC1(C)CCC(c2ccc(Cl)cc2)=C(CN2CCN(c3ccc(C(=O)NS(=O)(=O)c4ccc(N[C@H](CCN5CCOCC5)CSc5ccccc5)c(S(=O)(=O)C(F)(F)F)c4)cc3)CC2)C1 [Navitoclax] (partner 0.5 µM)	0.909
Clc1ccc(Nc2nnc(Cc3ccncc3)c3ccccc23)cc1 [Vatalanib] + N=C(N)NC(=N)NCCc1ccccc1 [Phenformin] (partner 250 µM)	0.428
C[C@@H]1CN(CC(=O)Nc2ccc3c(c2)Cc2cccc(-c4cc(=O)cc(N5CCOCC5)o4)c2S3)C[C@H](C)O1 + Cc1nc(NC(=O)N2CCC[C@H]2C(N)=O)sc1-c1ccnc(C(C)(C)C(F)(F)F)c1 [Alpelisib] (partner 2 µM)	1.2

Please look at the following compound next.
relative viability in this record for Clc1ccc(Nc2nnc(Cc3ccncc3)c3ccccc23)cc1 [Vatalanib] + CS(=O)(=O)N1CCN(Cc2cc3nc(-c4cccc5[nH]ncc45)nc(N4CCOCC4)c3s2)CC1 [Pictilisib] (partner 1 µM) : 1.15

###

Tested on: A-427
PROTOCOL DETAILS: relative viability (nuclei count vs DMSO), 5 days (fraction); higher = more cells survive
EXPERIMENTAL CONTEXT: first compound 0.03162 µM
Below, each entry is listed alongside its reported relative viability.
Answer with a number only.

COMPOUND	TARGET OR SYSTEM	relative viability
CC(C)Oc1cc(Nc2nc(N[C@@H](C)c3ccc(F)cn3)ncc2Cl)n[nH]1 [AZ23] + CC(C)C[C@H](NC(=O)[C@H](Cc1ccccc1)NC(=O)c1cnccn1)B(O)O [Bortezomib] (partner 0.002 µM)	A-427	1.11
CC(C)Oc1cc(Nc2nc(N[C@@H](C)c3ccc(F)cn3)ncc2Cl)n[nH]1 [AZ23] + O=C(c1cc(Cc2n[nH]c(=O)c3ccccc23)ccc1F)N1CCN(C(=O)C2CC2)CC1 [Olaparib] (partner 8 µM)	A-427	0.885
CC(C)Oc1cc(Nc2nc(N[C@@H](C)c3ccc(F)cn3)ncc2Cl)n[nH]1 [AZ23] + Nc1ncn([C@H]2C[C@H](O)[C@@H](CO)O2)c(=O)n1 [Decitabine] (partner 2 µM)	A-427	0.558

relative viability in this record for CC(C)Oc1cc(Nc2nc(N[C@@H](C)c3ccc(F)cn3)ncc2Cl)n[nH]1 [AZ23] + CS(=O)(=O)CCNCc1ccc(-c2ccc3ncnc(Nc4ccc(OCc5cccc(F)c5)c(Cl)c4)c3c2)o1 [Lapatinib] (partner 2 µM) : 1.02

###

Below, each entry is listed alongside its reported relative viability.
Tested on: NCI-H1395
PROTOCOL DETAILS: relative viability (nuclei count vs DMSO), 5 days (fraction); higher = more cells survive
EXPERIMENTAL CONTEXT: first compound 0.08 µM
Answer with a number only.

The following compounds have reported results that may help.
COMPOUND	relative viability
CCCCCCCCCCCC1=C(O)C(=O)C=C(O)C1=O [Embelin] + Nc1ncn([C@H]2C[C@H](O)[C@@H](CO)O2)c(=O)n1 [Decitabine] (partner 2 µM)	0.712
CCCCCCCCCCCC1=C(O)C(=O)C=C(O)C1=O [Embelin] + Cc1cc(Nc2cc(N3CCN(C)CC3)nc(Sc3ccc(NC(=O)C4CC4)cc3)n2)n[nH]1 [Tozasertib] (partner 0.1 µM)	0.766
CCCCCCCCCCCC1=C(O)C(=O)C=C(O)C1=O [Embelin] + O=C(CCCCCCC(=O)Nc1ccccc1)NO [Vorinostat] (partner 1 µM)	0.615
CCCCCCCCCCCC1=C(O)C(=O)C=C(O)C1=O [Embelin] + CC1(C)CCC(c2ccc(Cl)cc2)=C(CN2CCN(c3ccc(C(=O)NS(=O)(=O)c4ccc(N[C@H](CCN5CCOCC5)CSc5ccccc5)c(S(=O)(=O)C(F)(F)F)c4)cc3)CC2)C1 [Navitoclax] (partner 0.5 µM)	1.18

Please look at the following compound next.
relative viability in this record for CCCCCCCCCCCC1=C(O)C(=O)C=C(O)C1=O [Embelin] + NC(=O)Nc1cc(-c2cccc(F)c2)sc1C(=O)N[C@H]1CCCNC1 [AZD7762] (partner 0.2 µM) : 0.434

###

System: NCI-H1563
PROTOCOL DETAILS: relative viability (nuclei count vs DMSO), 5 days (fraction); higher = more cells survive
EXPERIMENTAL CONTEXT: first compound 1.265 µM
Below, each entry is listed alongside its reported relative viability.

COMPOUND	TARGET OR SYSTEM	OBSERVABLE	RESULT
COc1cc(N2CCC(C(N)=O)CC2)ccc1Nc1nc(N)c(Cl)c(Nc2ccccc2S(=O)(=O)C(C)C)n1 [HG-5-88-01] + Cc1nc(NC(=O)N2CCC[C@H]2C(N)=O)sc1-c1ccnc(C(C)(C)C(F)(F)F)c1 [Alpelisib] (partner 2 µM)	NCI-H1563	relative viability	0.844
COc1cc(N2CCC(C(N)=O)CC2)ccc1Nc1nc(N)c(Cl)c(Nc2ccccc2S(=O)(=O)C(C)C)n1 [HG-5-88-01] + CS(=O)(=O)CCNCc1ccc(-c2ccc3ncnc(Nc4ccc(OCc5cccc(F)c5)c(Cl)c4)c3c2)o1 [Lapatinib] (partner 2 µM)	NCI-H1563	relative viability	0.882
Clc1ccc(Nc2nnc(Cc3ccncc3)c3ccccc23)cc1 [Vatalanib] + Cc1nc(NC(=O)N2CCC[C@H]2C(N)=O)sc1-c1ccnc(C(C)(C)C(F)(F)F)c1 [Alpelisib] (partner 2 µM)	NCI-H1563	relative viability	0.863
Clc1ccc(Nc2nnc(Cc3ccncc3)c3ccccc23)cc1 [Vatalanib] + N=C(N)NC(=N)NCCc1ccccc1 [Phenformin] (partner 250 µM)	NCI-H1563	relative viability	0.712

relative viability in this record for Clc1ccc(Nc2nnc(Cc3ccncc3)c3ccccc23)cc1 [Vatalanib] + Nc1nc2[nH]cc(CCc3ccc(C(=O)N[C@@H](CCC(=O)O)C(=O)O)cc3)c2c(=O)[nH]1 [Pemetrexed] (partner 0.2 µM) : 0.758

###

Test system: NCI-H1915
PROTOCOL DETAILS: relative viability (nuclei count vs DMSO), 5 days (fraction); higher = more cells survive
EXPERIMENTAL CONTEXT: first compound 1.265 µM
OBSERVABLE: relative viability
Answer with a number only.

The following compounds have reported results that may help.
COMPOUND	NUMBER
COc1cc(N2CCC(C(N)=O)CC2)ccc1Nc1nc(N)c(Cl)c(Nc2ccccc2S(=O)(=O)C(C)C)n1 [HG-5-88-01] + CC(=O)Nc1cccc(-n2c(=O)n(C3CC3)c(=O)c3c(Nc4ccc(I)cc4F)n(C)c(=O)c(C)c32)c1 [Trametinib] (partner 0.02 µM)	0.313
Clc1ccc(Nc2nnc(Cc3ccncc3)c3ccccc23)cc1 [Vatalanib] + CCNC(=O)c1noc(-c2cc(C(C)C)c(O)cc2O)c1-c1ccc(CN2CCOCC2)cc1 [Luminespib] (partner 0.01 µM)	0.846
COc1cc(N2CCC(C(N)=O)CC2)ccc1Nc1nc(N)c(Cl)c(Nc2ccccc2S(=O)(=O)C(C)C)n1 [HG-5-88-01] + Nc1nc2[nH]cc(CCc3ccc(C(=O)N[C@@H](CCC(=O)O)C(=O)O)cc3)c2c(=O)[nH]1 [Pemetrexed] (partner 0.2 µM)	0.541

Please look at the following compound next.
// returns relative viability for Clc1ccc(Nc2nnc(Cc3ccncc3)c3ccccc23)cc1 [Vatalanib] + COc1cc2c(Oc3ccc(NC(=O)C4(C(=O)Nc5ccc(F)cc5)CC4)cc3F)ccnc2cc1OCCCN1CCOCC1 [Foretinib] (partner 0.25 µM) with NCI-H1915; value = 1.05
